Target: BTK T474I (Homo sapiens (Human), UniProt Q06187, T474I)
Sequence (Q06187 whole entry T474I): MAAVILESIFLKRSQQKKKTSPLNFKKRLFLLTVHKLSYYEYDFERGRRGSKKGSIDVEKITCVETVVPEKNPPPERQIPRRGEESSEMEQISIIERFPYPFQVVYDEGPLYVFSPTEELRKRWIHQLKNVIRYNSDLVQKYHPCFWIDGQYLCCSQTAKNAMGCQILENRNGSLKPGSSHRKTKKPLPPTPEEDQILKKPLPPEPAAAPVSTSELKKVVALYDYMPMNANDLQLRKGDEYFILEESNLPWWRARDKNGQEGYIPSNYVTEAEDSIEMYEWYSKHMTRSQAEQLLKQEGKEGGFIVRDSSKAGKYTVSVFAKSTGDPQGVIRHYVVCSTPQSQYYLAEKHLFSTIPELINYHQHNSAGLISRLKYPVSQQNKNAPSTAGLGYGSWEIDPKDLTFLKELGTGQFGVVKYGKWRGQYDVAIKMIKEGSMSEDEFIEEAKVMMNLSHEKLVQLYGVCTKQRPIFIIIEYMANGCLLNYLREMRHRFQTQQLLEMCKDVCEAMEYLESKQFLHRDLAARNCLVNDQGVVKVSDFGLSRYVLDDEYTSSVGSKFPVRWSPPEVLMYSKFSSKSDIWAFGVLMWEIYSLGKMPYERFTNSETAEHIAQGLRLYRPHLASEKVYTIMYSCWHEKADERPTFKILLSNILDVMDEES
Experiment: Binding kinetics measurements (Surface Plasmon Resonance) on BTK T474I
Conditions: binding affinity by Surface Plasmon Resonance (SPR)
pKd: −log10 of the molar value.
measure: pKd

mol_smiles=C[C@@H]1CC(=O)N[C@@H]2CC[C@H](C2)c2nc(-c3ccc(C(=O)Nc4cc(C(F)(F)F)ccn4)cc3)c3c(N)ncc(n23)/C=C/CCN1 measured_on="BTK T474I (Homo sapiens (Human), UniProt Q06187, T474I)" result="> 8.70"
mol_smiles=Nc1ncc2c3c1c(-c1ccc(C(=O)Nc4cc(C(F)(F)F)ccn4)cc1)nn3[C@@H]1CCC[C@H](C1)NC(=O)COCCC/C=C/2 measured_on="BTK T474I (Homo sapiens (Human), UniProt Q06187, T474I)" result="> 8.70"
mol_smiles=C[C@H]1CC(=O)N[C@@H]2CCCC(C2)n2nc(-c3ccc(C(=O)Nc4cc(C(F)(F)F)ccn4)cc3)c3c(N)ncc(c32)/C=C/CCN1 measured_on="BTK T474I (Homo sapiens (Human), UniProt Q06187, T474I)" result="> 8.70"
mol_smiles=Nc1ncc2c3c1c(-c1ccc(C(=O)Nc4cc(C(F)(F)F)ccn4)cc1)nn3[C@@H]1CCC[C@H](C1)NC(=O)COC/C=C/2 measured_on="BTK T474I (Homo sapiens (Human), UniProt Q06187, T474I)" result="> 8.70"
mol_smiles=C[C@@H]1CCn2nc(-c3ccc(C(=O)Nc4cc(C(F)(F)F)ccn4)cc3)c3c(N)ncc(c32)/C=C/CSCC(=O)N1 measured_on="BTK T474I (Homo sapiens (Human), UniProt Q06187, T474I)" result="> 8.70"

Let us move to another entry and its pKd.
Please look up its pKd: `C[C@@H]1CC(=O)N[C@@H]2CCC[C@H](C2)n2nc(-c3ccc(C(=O)Nc4cc(C#N)ccn4)cc3)c3c(N)ncc(c32)/C=C/CCN1`
> 8.70

* * *

Tau (h) BTK C418S (Act) listing for selected compounds.
Target: BTK C481S (Homo sapiens (Human), UniProt Q06187, C481S)
Sequence (Q06187 whole entry C481S): as the sequence (Q06187 whole entry T474I) above, with I474T, C481S counted along it
Assay: Binding kinetics measurements (Surface Plasmon Resonance) on BTK C481S
Conditions: target residence time for BTK C481S, SPR
Method: Binding kinetics measurements on wt-BTK, BTK […], BTK […], BTK […] and BTK […] […] The kinetic constants of the compounds were determined with single cycle kinetics with five consecutive injections with an increasing compound concentration with ranges of 3.16-316 nM. […] The SPR sensorgrams were analyzed with Biacore Evaluation Software by using a method of double referencing. […] Target residence for an induced fit model was calculated as described (Tummino and Copeland, 2008).
Write the numeric value and follow it with the unit.

# value lookup — system BTK C481S (Homo sapiens (Human), UniProt Q06187, C481S), readout Tau (h) BTK C418S (Act), item `C[C@H]1CC(=O)N[C@@H]2CCC[C@H](C2)n2nc(-c3ccc(C(=O)Nc4cc(C(F)(F)F)ccn4)cc3)c3c(N)ncc(c32)/C=C/CCN1C`
5.84 h

Another compound to check: `Nc1ncc2c3c1c(-c1ccc(C(=O)Nc4cc(C(F)(F)F)ccn4)cc1)nn3[C@@H]1CCC[C@H](C1)NC(=O)CCCOC/C=C/2`
2.04 h

Ok, now `Nc1ncc2c3c1c(-c1ccc(C(=O)Nc4cc(C(F)(F)F)ccn4)cc1)nn3[C@@H]1CCCN(C1)C(=O)CCCCCC/C=C/2`
7.11 h
